system: Rattus norvegicus; experiment: Hypoglycemic activity in fasted Lewis rat at 2 mg/kg, iv administered 30 mins prior to glucose stimulation measured after 120 mins by glucose tolerance test; type: functional, organism-based; design: dose 2 mg/kg
Activity calls are given as the source filed them. No cut-off for these calls is given here.
readout: Activity

Solved cases (8 shown):
compound	Activity
COC1=CC(=O)OC(c2ccc(OC)c(OC)c2)C1 (centres undefined)	inactive
COc1cc2c(cc1OC)C1CC(OCC(C)C)=CC(=O)N1CC2 (centres undefined)	Active
COc1ccc(C2CC(O)C(CC(C)C)CN2)cc1OC (centres undefined)	Active
COc1ccc(C2CC(=O)CC(=O)N2)cc1OC (centres undefined)	inactive
COc1ccc(C2CC(OCC(C)C)=CC(=O)N2)cc1OC (centres undefined)	Active
COc1cc2c(cc1OC)[C@@H]1C[C@H](O)[C@@H](CC(C)C)CN1CC2	Active
COc1ccc(-c2cc(OCC(C)C)cc(=O)[nH]2)cc1OC	inactive
COc1ccc(C2CC(OCC(C)C)=CC(=O)O2)cc1OC (centres undefined)	inactive

Pending compound:
Reported Activity for COC1=CC(=O)N2CCc3cc(OC)c(OC)cc3C2C1 (centres undefined) was Active
